Target: Delta-type opioid receptor (Homo sapiens)
Sequence (P41143 whole entry): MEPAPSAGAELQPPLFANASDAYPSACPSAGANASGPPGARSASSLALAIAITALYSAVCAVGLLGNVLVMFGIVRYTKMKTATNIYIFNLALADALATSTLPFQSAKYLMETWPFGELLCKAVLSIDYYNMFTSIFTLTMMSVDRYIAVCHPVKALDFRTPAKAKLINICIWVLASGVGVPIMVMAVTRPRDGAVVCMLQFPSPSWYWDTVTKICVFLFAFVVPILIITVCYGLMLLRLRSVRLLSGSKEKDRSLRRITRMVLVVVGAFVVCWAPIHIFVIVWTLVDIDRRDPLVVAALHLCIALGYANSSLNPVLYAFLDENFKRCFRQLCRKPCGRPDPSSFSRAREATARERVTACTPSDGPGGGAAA
Experiment: Displacement of [3H]DPN from recombinant human delta opioid receptor expressed in CHOK1 cell membranes
This listing pairs compounds with measured pKi.
A value of pKi is the negative decimal logarithm of a concentration given in moles per litre.

Some solved entries appear below for comparison.
| COMPOUND | SYSTEM NAME | pKi |
| --- | --- | --- |
| Oc1cccc(C2C[C@H]3CC[C@H](C2)N3Cc2c(F)cccc2F)c1 (relative stereo; 18a) | Delta-type opioid receptor (Homo sapiens) | 6.80 |
| NC(=O)c1cccc(C2C[C@H]3CC[C@H](C2)N3CC(=O)C2CCCCC2)c1 (relative stereo; 30b) | Delta-type opioid receptor (Homo sapiens) | 6.40 |
| CC(C)(C)c1ccc(CN2[C@@H]3CC[C@@H]2CC(c2cccc(O)c2)C3)cc1 (relative stereo; 20b) | Delta-type opioid receptor (Homo sapiens) | 7.50 |
| Oc1cccc(C2C[C@H]3CC[C@H](C2)N3CC(O)Cc2ccccc2)c1 (relative stereo; 23a) | Delta-type opioid receptor (Homo sapiens) | 8.20 |
| NC(=O)c1cccc(C2C[C@H]3CC[C@H](C2)N3CCCc2ccccc2)c1 (relative stereo; 24a) | Delta-type opioid receptor (Homo sapiens) | 8.90 |

Ask: Fill in: pKi of Oc1cccc(C2C[C@H]3CC[C@H](C2)N3CCCc2ccccc2)c1 (relative stereo; 12b) is ___
Result: 7.20
